- SYSTEM UNDER TEST: GSK3b (Homo sapiens (Human), UniProt P49841)
- Sequence (P49841 whole entry, species assumed): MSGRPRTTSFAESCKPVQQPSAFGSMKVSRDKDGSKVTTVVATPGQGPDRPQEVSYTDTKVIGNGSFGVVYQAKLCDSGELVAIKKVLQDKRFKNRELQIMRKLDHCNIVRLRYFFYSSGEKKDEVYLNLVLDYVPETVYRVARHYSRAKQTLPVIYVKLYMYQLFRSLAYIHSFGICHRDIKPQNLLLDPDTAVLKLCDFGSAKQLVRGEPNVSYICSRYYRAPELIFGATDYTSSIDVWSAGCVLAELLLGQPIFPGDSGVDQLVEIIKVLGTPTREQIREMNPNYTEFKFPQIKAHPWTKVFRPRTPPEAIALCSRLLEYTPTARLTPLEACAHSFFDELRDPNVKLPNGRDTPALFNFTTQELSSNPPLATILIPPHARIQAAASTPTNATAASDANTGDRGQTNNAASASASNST
- EXPERIMENT NOTES: Broad kinase panel screening
- Format: biochemical
- MEASUREMENT CONTEXT: read-out: IC50 nM
MEASURE NAME: IC50 (nM)
State the answer as a number, implicitly in nM.

Q: Kindly state the measured IC50 obtained for CN(C)CCC1CCN(CCS(=O)(=O)c2ccc(-c3cnc(N)c(C(=O)Nc4ccccc4)n3)cc2)CC1 with GSK3b (Homo sapiens (Human), UniProt P49841).
Result: 63

---

- EXPERIMENT NOTES: pKa
- Assay type: physicochemical
- MEASUREMENT CONTEXT: method not stated
MEASURE NAME: pKa

Q: Item under review: CC(CN(C)C)S(=O)(=O)c1ccc(-c2cnc(N)c(C(=O)Nc3ccccc3)n2)cc1 (stereo not drawn) . Reported pKa?
Result: 7.04

Q: Can you look up the measured pKa of CN(C)CCC1CCN(CCS(=O)(=O)c2ccc(-c3cnc(N)c(C(=O)Nc4ccccc4)n3)cc2)CC1 for me?
Result: 10

Q: Endpoint output: pKa of CCN(CC)CCS(=O)(=O)c1ccc(-c2cnc(N)c(C(=O)Nc3ccccc3)n2)cc1 . Value?
Result: 7.46

Q: Look at this molecule and give its reported pKa. CCN(CC)C1CCN(CCS(=O)(=O)c2ccc(-c3cnc(N)c(C(=O)Nc4ccccc4)n3)cc2)CC1
Result: 9.81

Q: # lookup: pKa of CN(C)CCNS(=O)(=O)c1ccc(-c2cnc(N)c(C(=O)Nc3ccccc3)n2)cc1
Result: 8.36

Q: Reported pKa, molecule CN1CCN(CCS(=O)(=O)c2ccc(-c3cnc(N)c(C(=O)Nc4ccccc4)n3)cc2)CC1 : ____
Result: 7.73

---

- SYSTEM UNDER TEST: PKCmu/PRKD1 (Homo sapiens (Human))
- EXPERIMENT NOTES: Broad kinase panel screening
- Type: biochemical
MEASURE NAME: IC50

Q: Please give the measured IC50 for this molecule: CN(C)CCC1CCN(CCS(=O)(=O)c2ccc(-c3cnc(N)c(C(=O)Nc4ccccc4)n3)cc2)CC1 [Compound 5]
Result: 134 nM

---

- SYSTEM UNDER TEST: MLK3/MAP3K11 (Homo sapiens (Human))
- Sequence (Q16584 whole entry): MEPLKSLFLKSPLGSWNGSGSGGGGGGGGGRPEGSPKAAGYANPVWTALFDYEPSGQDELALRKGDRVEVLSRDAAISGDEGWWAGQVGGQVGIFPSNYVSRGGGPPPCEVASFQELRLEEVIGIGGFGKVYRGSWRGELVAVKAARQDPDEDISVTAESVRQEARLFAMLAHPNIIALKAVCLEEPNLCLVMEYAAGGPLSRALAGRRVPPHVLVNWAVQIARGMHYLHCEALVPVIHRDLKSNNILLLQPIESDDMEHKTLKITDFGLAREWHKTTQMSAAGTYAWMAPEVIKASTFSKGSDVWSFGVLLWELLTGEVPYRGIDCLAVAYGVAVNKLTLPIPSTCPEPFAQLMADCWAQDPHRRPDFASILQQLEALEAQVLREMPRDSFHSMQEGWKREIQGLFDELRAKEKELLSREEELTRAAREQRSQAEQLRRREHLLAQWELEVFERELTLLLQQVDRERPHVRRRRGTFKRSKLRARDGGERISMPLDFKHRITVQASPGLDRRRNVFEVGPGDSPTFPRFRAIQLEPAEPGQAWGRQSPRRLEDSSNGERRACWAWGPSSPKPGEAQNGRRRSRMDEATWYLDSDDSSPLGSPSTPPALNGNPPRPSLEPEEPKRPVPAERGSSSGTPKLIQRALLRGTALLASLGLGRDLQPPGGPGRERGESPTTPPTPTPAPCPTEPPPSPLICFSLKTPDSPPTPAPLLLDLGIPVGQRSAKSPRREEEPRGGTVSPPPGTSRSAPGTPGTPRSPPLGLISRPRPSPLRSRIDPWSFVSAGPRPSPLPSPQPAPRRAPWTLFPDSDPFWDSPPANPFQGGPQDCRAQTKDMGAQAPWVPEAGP
- EXPERIMENT NOTES: Broad kinase panel screening
- Type: biochemical
- MEASUREMENT CONTEXT: read-out: IC50
- Source text: Example 16: Broad Kinase Panel Screening (359) Major hits out of 359 were: ALK, ARK, c-MER, CLK1, DYRK, GSK3a, GSK3b, FLT2, FLT3, MLK1, SIK2, TNIK, and YSK4.
MEASURE NAME: IC50 (nM)
Expressed in nM, but write only the number.

Q: Could you tell me which IC50 is on file for CN(C)CCC1CCN(CCS(=O)(=O)c2ccc(-c3cnc(N)c(C(=O)Nc4ccccc4)n3)cc2)CC1 ?
Result: 5.9

---

Kindly supply the reported Bottom values for the records listed here.
- SYSTEM UNDER TEST: ATR/ATRIP(h) (Homo sapiens (Human), UniProt Q13535)
- Sequence (Q13535 whole entry): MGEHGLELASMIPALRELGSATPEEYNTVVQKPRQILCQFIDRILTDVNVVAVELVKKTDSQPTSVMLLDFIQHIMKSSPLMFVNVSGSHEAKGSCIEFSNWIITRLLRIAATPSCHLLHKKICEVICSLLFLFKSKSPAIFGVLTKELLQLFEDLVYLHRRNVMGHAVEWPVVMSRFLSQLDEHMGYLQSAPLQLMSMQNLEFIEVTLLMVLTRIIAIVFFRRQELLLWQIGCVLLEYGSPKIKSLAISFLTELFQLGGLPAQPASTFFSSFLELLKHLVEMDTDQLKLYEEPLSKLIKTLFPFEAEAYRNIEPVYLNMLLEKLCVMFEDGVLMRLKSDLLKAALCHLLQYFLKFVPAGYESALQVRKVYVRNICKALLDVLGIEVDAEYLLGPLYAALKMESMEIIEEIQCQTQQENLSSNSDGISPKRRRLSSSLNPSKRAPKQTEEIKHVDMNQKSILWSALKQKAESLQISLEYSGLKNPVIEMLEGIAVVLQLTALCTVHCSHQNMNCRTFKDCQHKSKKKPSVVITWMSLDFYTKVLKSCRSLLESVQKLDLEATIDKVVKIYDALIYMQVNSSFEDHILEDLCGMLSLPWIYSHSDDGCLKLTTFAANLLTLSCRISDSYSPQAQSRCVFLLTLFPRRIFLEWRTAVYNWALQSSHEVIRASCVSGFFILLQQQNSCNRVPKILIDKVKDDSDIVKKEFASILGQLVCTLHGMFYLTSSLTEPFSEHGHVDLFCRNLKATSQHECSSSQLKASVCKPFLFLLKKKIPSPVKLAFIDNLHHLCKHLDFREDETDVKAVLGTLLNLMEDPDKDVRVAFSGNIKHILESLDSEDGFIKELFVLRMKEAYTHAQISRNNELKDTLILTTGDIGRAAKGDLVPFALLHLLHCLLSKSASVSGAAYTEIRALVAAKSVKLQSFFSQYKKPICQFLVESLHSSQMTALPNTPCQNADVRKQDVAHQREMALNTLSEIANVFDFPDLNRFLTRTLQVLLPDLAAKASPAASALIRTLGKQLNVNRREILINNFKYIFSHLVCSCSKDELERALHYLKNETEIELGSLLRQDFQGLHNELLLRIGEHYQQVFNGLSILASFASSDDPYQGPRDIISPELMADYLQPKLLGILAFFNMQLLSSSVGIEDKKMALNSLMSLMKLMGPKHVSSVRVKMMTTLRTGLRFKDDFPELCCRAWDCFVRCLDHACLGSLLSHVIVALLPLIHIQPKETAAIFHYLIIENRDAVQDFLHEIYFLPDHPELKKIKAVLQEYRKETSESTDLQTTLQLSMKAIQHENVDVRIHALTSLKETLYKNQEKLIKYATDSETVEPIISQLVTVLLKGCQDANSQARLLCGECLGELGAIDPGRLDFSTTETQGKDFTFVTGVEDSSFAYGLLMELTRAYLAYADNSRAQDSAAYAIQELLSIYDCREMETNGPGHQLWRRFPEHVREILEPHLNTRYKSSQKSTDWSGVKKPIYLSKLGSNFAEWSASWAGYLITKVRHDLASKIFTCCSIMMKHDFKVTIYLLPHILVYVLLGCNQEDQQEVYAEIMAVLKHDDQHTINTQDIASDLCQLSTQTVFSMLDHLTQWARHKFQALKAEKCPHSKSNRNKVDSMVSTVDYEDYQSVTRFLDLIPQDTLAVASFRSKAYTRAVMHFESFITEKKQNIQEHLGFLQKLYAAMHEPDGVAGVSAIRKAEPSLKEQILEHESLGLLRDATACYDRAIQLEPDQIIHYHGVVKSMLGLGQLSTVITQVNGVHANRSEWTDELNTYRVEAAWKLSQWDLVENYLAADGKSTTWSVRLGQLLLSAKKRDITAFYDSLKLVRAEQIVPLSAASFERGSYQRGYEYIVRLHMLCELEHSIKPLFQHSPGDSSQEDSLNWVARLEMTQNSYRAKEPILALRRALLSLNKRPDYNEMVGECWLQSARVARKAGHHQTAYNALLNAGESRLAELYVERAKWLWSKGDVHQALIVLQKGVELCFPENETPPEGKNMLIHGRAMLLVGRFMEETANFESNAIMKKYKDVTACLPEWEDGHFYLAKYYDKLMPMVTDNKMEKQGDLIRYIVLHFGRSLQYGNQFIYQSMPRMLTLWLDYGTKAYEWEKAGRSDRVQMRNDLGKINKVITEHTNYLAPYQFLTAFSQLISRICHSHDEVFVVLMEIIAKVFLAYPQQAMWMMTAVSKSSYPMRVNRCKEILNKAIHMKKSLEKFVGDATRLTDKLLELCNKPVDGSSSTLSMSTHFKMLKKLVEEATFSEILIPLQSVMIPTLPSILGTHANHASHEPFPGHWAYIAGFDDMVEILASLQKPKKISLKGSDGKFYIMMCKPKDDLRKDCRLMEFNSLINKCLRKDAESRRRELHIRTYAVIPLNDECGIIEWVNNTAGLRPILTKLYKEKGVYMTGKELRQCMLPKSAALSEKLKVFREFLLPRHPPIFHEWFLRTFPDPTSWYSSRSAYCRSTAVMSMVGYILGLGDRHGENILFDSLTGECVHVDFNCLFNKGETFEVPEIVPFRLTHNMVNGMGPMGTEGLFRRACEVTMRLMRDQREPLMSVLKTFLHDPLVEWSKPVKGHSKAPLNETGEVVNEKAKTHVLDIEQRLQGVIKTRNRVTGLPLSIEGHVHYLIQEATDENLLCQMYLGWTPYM
- Sequence (Q8WXE1 whole entry partner): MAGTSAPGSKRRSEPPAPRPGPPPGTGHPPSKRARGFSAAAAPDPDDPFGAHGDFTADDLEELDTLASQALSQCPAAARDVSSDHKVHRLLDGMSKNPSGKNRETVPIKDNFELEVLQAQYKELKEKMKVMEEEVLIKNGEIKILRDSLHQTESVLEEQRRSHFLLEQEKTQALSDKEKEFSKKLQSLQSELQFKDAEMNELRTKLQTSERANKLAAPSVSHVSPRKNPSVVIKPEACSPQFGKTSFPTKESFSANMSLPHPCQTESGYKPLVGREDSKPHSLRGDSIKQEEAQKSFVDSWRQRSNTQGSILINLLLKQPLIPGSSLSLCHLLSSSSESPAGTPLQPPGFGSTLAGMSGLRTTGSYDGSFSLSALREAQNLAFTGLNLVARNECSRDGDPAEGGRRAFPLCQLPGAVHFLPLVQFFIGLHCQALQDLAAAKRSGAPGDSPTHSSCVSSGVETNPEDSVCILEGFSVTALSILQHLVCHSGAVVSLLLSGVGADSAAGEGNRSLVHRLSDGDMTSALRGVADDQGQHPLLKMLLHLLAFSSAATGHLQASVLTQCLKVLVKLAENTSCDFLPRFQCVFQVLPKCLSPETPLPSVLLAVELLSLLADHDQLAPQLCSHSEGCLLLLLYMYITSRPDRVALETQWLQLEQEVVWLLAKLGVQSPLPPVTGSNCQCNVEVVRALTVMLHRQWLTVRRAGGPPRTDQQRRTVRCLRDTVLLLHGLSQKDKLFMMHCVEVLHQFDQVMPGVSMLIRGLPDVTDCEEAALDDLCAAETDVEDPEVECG
- EXPERIMENT NOTES: Eurofins ATR/ATRIP HTRF assay, p53 Ser15 phosphorylation
- Format: biochemical
- Set-up: key: % of DMSO positive control activity
- MEASUREMENT CONTEXT: ATP 10 μM; four parameter logistic fit of % control activity

Q: Given the molecule CCN(CC)C1CCN(CCS(=O)(=O)c2ccc(-c3cnc(N)c(C(=O)Nc4ccccc4)n3)cc2)CC1 , what is its reported Bottom?
Result: −2

Q: Quick one: Bottom for CC(CN(C)C)S(=O)(=O)c1ccc(-c2cnc(N)c(C(=O)Nc3ccccc3)n2)cc1 (centres unmarked) ?
Result: −1

Q: Record request: Bottom value, item CCN(CC)CCS(=O)(=O)c1ccc(-c2cnc(N)c(C(=O)Nc3ccccc3)n2)cc1
Result: 1

Q: Which Bottom value is on record for CN1CCN(CCS(=O)(=O)c2ccc(-c3cnc(N)c(C(=O)Nc4ccccc4)n3)cc2)CC1 ?
Result: −3

Q: I'd like to know its Bottom. The molecule in question is CN(C)CCC1CCN(CCS(=O)(=O)c2ccc(-c3cnc(N)c(C(=O)Nc4ccccc4)n3)cc2)CC1
Result: 1
